Quantity: melting point

As a guide, the following entries are already answered.
Form field melting point, entry `Nc1nc(-c2ccco2)c(C(=O)C2CCC2)s1` : 125 to 160 °C (dec.)

Form field melting point, entry `O=C(c1sc(NC(=O)N2CCOCC2)nc1-c1ccco1)C1CCCC1` : 108 to 110 °C

Form field melting point, entry `CN1CCCN(CC(=O)Nc2nc(-c3ccco3)c(C(=O)C3CCOCC3)s2)CC1` : 94 to 96 °C

Form field melting point, entry `O=C(Nc1nc(-c2ccco2)c(C(=O)C(F)(F)F)s1)c1ccncc1` : 268 to 270 °C

Form field melting point, entry `O=C(Nc1nc(-c2ccco2)c(C(=O)c2ccoc2)s1)c1ccncc1` : 217 to 231 °C

Form field melting point, entry `O=C(Nc1nc(-c2ccco2)c(-c2ccn(Cc3ccccc3)c(=O)c2)s1)c1ccncc1` : 137 to 140 °C

Form field melting point, entry `Cn1ccc(C(=O)c2sc(NC(=O)c3ccncc3)nc2-c2ccco2)cc1=O` : 243 to 255 °C (dec.)

Form field melting point, entry `Cc1ccoc1-c1nc(NC(=O)c2ccncc2)sc1-c1ccncc1` : 254 to 257 °C

Form field melting point, entry `O=C(Nc1nc(-c2ccco2)c(C(=O)c2ccccc2)s1)c1ccc(=O)[nH]c1` : > 300 °C

Could you now look at the following compound, please?
Form field melting point, entry `O=C(Nc1nc(-c2ccco2)c(C(=O)c2ccc(N3CCC(O)CC3)nc2)s1)c1ccncc1` : 264 to 268 °C

====

Each record here notes measured melting point.

Form field melting point, entry `O=C(Nc1nc(-c2ccco2)c(C(=O)c2ccn(Cc3ccccc3)c(=O)c2)s1)c1ccncc1` : 288 to 291 °C

Form field melting point, entry `CCn1cc(-c2sc(NC(=O)c3ccncc3)nc2-c2ccco2)ccc1=O` : 285 to 289 °C

---
Form field melting point, entry `Cc1cnc(C(=O)Nc2nc(-c3ccco3)c(C(=O)c3ccccn3)s2)cn1` : 208 to 209 °C

Form field melting point, entry `Cc1cncc(C(=O)Nc2nc(-c3ccco3)c(C(=O)c3ccccn3)s2)c1` : 245 to 248 °C

Form field melting point, entry `O=C(Nc1nc(-c2ccco2)c(C(=O)c2ccccn2)s1)c1ccnc(N2CCOCC2)c1` : 216 to 217 °C

Form field melting point, entry `O=C(Nc1nc(-c2ccco2)c(-c2ccc(=O)n(Cc3ccccc3)c2)s1)c1ccncc1` : 215 to 218 °C

====

Each record here notes measured melting point.

As a guide, the following entries are already answered.
Form field melting point, entry CC(C)(C)C(=O)c1sc(NC(=O)c2ccncc2)nc1-c1ccco1 [Compound 400] : 240 to 245 °C

Form field melting point, entry COCC(=O)c1sc(NC(=O)c2ccc(Cl)nc2)nc1-c1ccco1 [Compound 404] : 174 to 183 °C

Could you now look at the following molecule, please?
Form field melting point, entry Cc1cnc(C(=O)c2sc(NC(=O)c3ccncc3)nc2-c2ccco2)s1 [Compound 349] : 275 to 277 °C (dec.)

====

Quantity: melting point

Form field melting point, entry `Cc1ccc(C(=O)c2sc(NC(=O)c3ccncc3)nc2-c2ccco2)nc1` : 255 to 257 °C

Form field melting point, entry `Cc1ccc(C(=O)Nc2nc(-c3ccco3)c(C(=O)c3ccccn3)s2)cn1` : 210 to 215 °C

Form field melting point, entry `O=C(CN1CCSC1)Nc1nc(-c2ccco2)c(C(=O)c2ccccn2)s1` : 153 to 155 °C

Form field melting point, entry `O=C(Nc1nc(-c2ccco2)c(C(=O)C2CCSCC2)s1)c1ccncc1` : 203 to 210 °C

Form field melting point, entry `O=C(CN1CCN(C2CCOCC2)CC1)Nc1nc(-c2ccco2)c(C(=O)c2ccccn2)s1` : 172 to 188 °C

Form field melting point, entry `CC(C)(O)c1cc2cc(C(=O)Nc3nc(-c4ccco4)c(C(=O)c4ccccn4)s3)ccc2o1` : 230 to 231 °C
